Listed next: entries and their corresponding inhibition of cytokine (TNF-α) production.
Tested on: cytokine (TNF-α) production in human leukemia cell line (THP-1)
Experiment: Cytokine
Assay type: cell-based
Conditions: THP-1 cells, LPS 50 ng/mL, 240 min; test concentration not given
RECORDED ENDPOINT: inhibition of cytokine (TNF-α) production (%)

COMPOUND	UNIT ABBREV	REPORTED VALUE
CC1=CC(=O)C[C@@H]2C[C@H](O)[C@H]3[C@@H]4[C@H](O)C[C@H](O)[C@@]4(C)CC[C@@H]3[C@@]12C	%	52.9
CC(=O)OC1CC[C@H]2[C@@H]3C[C@H](O)[C@H]4CC(=O)C=C(C)[C@]4(C)[C@H]3CC[C@]12C (some centres unmarked)	%	73.4
CC1=CC(=O)C[C@H]2CC[C@@H]3[C@H](CC[C@]4(C)C(=O)CC[C@@H]34)[C@@]12C	%	73.2
CC1=CC(=O)C=C2CC[C@@H]3[C@H](CC[C@]4(C)[C@@H](O)CC[C@@H]34)[C@@]12C	%	46.6
CC(=O)OC1CC[C@H]2[C@@H]3[C@@H](O)C[C@H]4CC(=O)C=C(C)[C@]4(C)[C@H]3CC[C@]12C (some centres unmarked)	%	33.5
CC(=O)OC1C[C@@H](O)[C@H]2[C@@H]3CC[C@H]4CC(=O)C=C(C)[C@]4(C)[C@H]3CC[C@]12C (some centres unmarked)	%	37.8
CC(=O)O[C@H]1CC[C@H]2[C@@H]3CC[C@H]4CC(=O)C=C(C)[C@]4(C)[C@H]3CC[C@]12C [Compound 1, Metenolone acetate, reference compound]	%	62.5
CC1=CC(=O)C=C2CC[C@@H]3[C@H](C[C@@H](O)[C@]4(C)[C@@H](O)CC[C@@H]34)[C@@]12C	%	60.1
